biological target: T1, human PD-1 ECD/Fc fusion protein (human); assay: RBA ELISA on huPD-1/Fc; competitor biotin-huPD-L2/Fc
T1 construct: also called huPD-1/Fc; HuPD-1 ECD/Fc
pIC50: −log10 of the molar value.
metric: pIC50

{"columns": ["binder", "value.measured"],
 "data": [
  ["mAb709 (antibody, V domains shown, murine hybridoma anti-PD-1 mAb) VH: EVKLVESGGGLVKPGGSLKLSCAASGFTFSFYTMSWVRQTPEKRLEWVATISGGGRDTYYPDSVKGRFTISRDNAKNTLYLHMSSLRSEDTALYYCAGQGGNYLFAYWGQGTLVTVSA VL: DIVMTQSHKFMSTSVGDSVTITCKASQDVNTVVAWYQQKPGQSLKVLISWASTRHTGVPARFTGSGSGTDYTLTISSVQAEDLALYYCQQHYTTPYTFGGGTQLEIK", 9.28],
  ["mAb719 (antibody, V domains shown, murine hybridoma anti-PD-1 mAb) VH: EVKLVESGGGLVKPGGSLKLSCTASGFSFSSHLMSWVRQTPEKRLEWVAAISGGGADTYYPDSVKGRFTISRDNAKNTLYLQMRSLRSEDTALYYCTRQILAFDSWGQGTTLTVSS VL: DIQMNQSPSSLSVSLGDTITITCHASQNIYVWLNWYQQKPGNIPKLLIYKASNLHTGVPSRFSGGGSGTGFTLTISSLQPEDIATYYCQQGQSYPWTFGGGTKLEIK", 8.73],
  ["mAb715 (antibody, V domains shown, murine hybridoma anti-PD-1 mAb) VH: EVMLVESGGGLLKPGGSLKLSCAASGFTFSSYAMSWVRQTPEKRLEWVATISGGGRDTYYPDSVKGRFTISRDNAKNTLYLQMTSLRSEDTAFYYCAGQGGTYLFASWGQGTLVTVSA VL: DIVMTQSHKFMSTSVGDSVTITCKASQDVNTAVAWYQQKPGQPPKVLIYWASTRHTGVPDRFTGSGSGTDYTLTISSVQAEDLALYYCQQHYTTPYTFGGGTKLEIK", 8.66],
  ["mAb718 (antibody, V domains shown, murine hybridoma anti-PD-1 mAb) VH: QVQLQQSGAELVRPGASVTLSCKASGYTFTDYEMHWAKQTPVHGLEWIGVIEPESGGTVYNQKFKGKAKLTADKSSRTAYMELRSLTSEDSAVYYCTREGFNSDHYFDYWGQGTTLTVSS VL: DVLMTQTPLSLPVSLGDQASISCRSSQNIVHSNGNTYLEWYLQKPGQSPKLLIYKVFNRFSGVPDRFSGSGSGTDFTLKISRVEAEDLGVYYCFQGSHVPYTFGGGTKLEIK", 8.72],
  ["mAb713 (antibody, V domains shown, murine hybridoma anti-PD-1 mAb) VH: EVKLVESGGGLVKPGGSLELSCAASGFTSSDYGMHWVRQAPEKGLEWVAYISSGSYTIYYADTVKGRFTISRDNAKNTLFLQMTSLRSEDTAMYYCAKRGGSSHVNVMDYWGQGTSVTVSS VL: DIQMTQSSSYLSVSLGGRVTITCKASDHINNWLAWYQQKPGNAPRLLISGATSLETGVPSRFSGSGSGKDYTLSITSLQTEDVATYYCQQYWSPPYTFGGGTKLEIK", 8.60],
  ["mAb703 (antibody, V domains shown, murine hybridoma anti-PD-1 mAb) VH: DVQLQESGPGLVKPSQSLSLTCSVTGYSITTGYYWNWIRQFPGNKLEWMGYMSYDGNNNYNPSLKNRISITRDTSKNQFLLRLNSVTTEDTATYFCARDRGTTILGGTMDYWGQGTSVTVS VL: SIVMTQTPKFLFVSAGDRVTIACKASQSVSNDVAWYQQKPGQSPKLLIYYAFYRYTGVPDRFTGSGYGTDFTFTISTVQAEDLAVYFCQQDYSSPWTFGGGTKLEIK", 8.69],
  ["mAb714 (antibody, V domains shown, murine hybridoma anti-PD-1 mAb) VH: EVHLQQSGPELVKPGASVKIFCKASGYTFTDNNVEWVKQSHGKSLEWIGDINPNNGDTLYSQYFKDKATLTVDKSSTTAYMELRSLTSEDTGLYYCARGKSDQFDYWGQGTTLTVSS VL: DIQMTQSPASQSASLGESVTITCLASQTIGTWLAWYQQKPGKSPQLLIYAATSLADGVPSRFSGSGSGTKFSFKISSLQGEDFVSYYCQQLYSSPWTFGGGTKLEIK", 8.65],
  ["mAb701 (antibody, V domains shown, murine hybridoma anti-PD-1 mAb) VH: EVLLVESGGGLVKPGGSLKLSCAASGFTFSSYMMSWIRQTPERRLEWVASMSGGGRDTYYPDSVKGRFTISRDNAKNTLYLQMSSLRSEDTALYYCARRGTYAMDYWGQGTSVTVSS VL: DIQMTQSPASQSASLGESVTITCLASQTIGTWLTWYQQKPGKSPQLLIYAATSLADGVPSRFSGSGSGTKFSFKISSLQAEDFVSYYCQQLYSTPWTFGGGTKLEIK", 8.57]
]}
